All figures here come from BindingDB's records for doi:10.1021/jm970211n.

- ASSAY OVERVIEW: Inhibition of angiotensin I converting enzyme in silico
Output Yes for records whose IC50 is lower than 60 nM, No for records at or above 60 nM.

# example entries with known answers
[
  {
    "COMPOUND": "O=C(O)[C@@H]1C=CCn2c(=O)n(CS)c(=O)n21",
    "CLASS LABEL": "No"
  },
  {
    "COMPOUND": "CC(NP(=O)(O)CCc1ccccc1)C(=O)N1CCCC1C(=O)O (stereo unspecified)",
    "CLASS LABEL": "Yes"
  },
  {
    "COMPOUND": "O=C(S[C@@H]1CCC[C@@H]1C(=O)N1CCC[C@H]1C(=O)O)c1ccccc1",
    "CLASS LABEL": "No"
  },
  {
    "COMPOUND": "O=C(O)[C@@H]1CC2(CN1C(=O)CP(=O)(O)CCCCc1ccccc1)SCCS2",
    "CLASS LABEL": "Yes"
  },
  {
    "COMPOUND": "O=C(O)[C@@H]1CCCN1C(=O)[C@@H]1CC[C@H]1S",
    "CLASS LABEL": "No"
  },
  {
    "COMPOUND": "O=C(O)CCc1cc(O)c2n(c1=O)[C@H](C(=O)O)CC2",
    "CLASS LABEL": "Yes"
  },
  {
    "COMPOUND": "CC1(CS)C(=O)N2CCCC(C(=O)O)N2C1=O (stereo unspecified)",
    "CLASS LABEL": "No"
  },
  {
    "COMPOUND": "O=C(O)Cn1c(=O)n2n(c1=O)C(C(=O)O)C=CC2 (stereo unspecified)",
    "CLASS LABEL": "Yes"
  }
]

Quick check: does CC(NC(=O)C1CCCCC1S)C(=O)N1CCCC1C(=O)O (stereo unspecified) have IC50 under 60 nM?
Yes

Quick check: does C[C@H](NC(CCC(=O)Nc1ccc(I)cc1)C(=O)O)C(=O)N1CCC[C@H]1C(=O)O (stereo partly specified) have IC50 under 60 nM?
Yes

Quick check: does CC(NP(=O)(O)O)C(=O)C1CCCC1C(=O)O (stereo unspecified) have IC50 under 60 nM?
Yes
